- Assay procedure: amyloid nucleation score (Sup35N fusion, yeast selection) (log enrichment); library NNK2; higher = more nucleation; inactive = no reads after selection;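 also: zero at mode of non-aggregating sequences after 7 days selection at 30°C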
Lab note: compare amyloid nucleation score against 0.4. Equal or greater, write 1. Smaller, write 0.

>>> df
              substance  label_class
0                GDRDVI            1
1  IAVAKYLTLKDVVLNSWNSY            1
2  RRTIGASTEKYRLNNFLHVC            0
3  FWVALYFSTCFPHDMLSSGP            0
4                MNCVGG            0
